Data origin, for the record: ChEMBL document CHEMBL3600283

pIC50 for assorted molecules
# TESTED ON: Transthyretin (Homo sapiens, UniProt P02766)
# ASSAY NAME: Binding affinity to TTR in human plasma assessed as protein stabilization preincubated for 1 hr followed by urea-mediated denaturation by Western blot analysis
# STUDY CONDITIONS: read-out: IC50
pIC50 is defined as minus the log10 of a concentration measured in mol/L.

Consider the worked cases shown below.
[
  {
    "MOLECULE": "O=C(O)Cc1ccccc1Nc1c(Cl)cccc1Cl [DICLOFENAC]",
    "pIC50": 3.85
  },
  {
    "MOLECULE": "O=C(O)COC(=O)Cc1ccccc1Nc1c(Cl)cccc1Cl [ACECLOFENAC]",
    "pIC50": 3.77
  },
  {
    "MOLECULE": "Cc1ccc(Cl)c(Nc2ccccc2C(=O)O)c1Cl [MECLOFENAMIC ACID]",
    "pIC50": 4.30
  },
  {
    "MOLECULE": "Cc1c(Cl)cccc1Nc1ccccc1C(=O)O [TOLFENAMIC ACID]",
    "pIC50": 4.40
  }
]

query: Quick one: give measured pIC50 for O=c1cc(-c2ccc(O)c(O)c2)oc2cc(O)cc(O)c12 [LUTEOLIN]
result: 5.15

query: Quick one: give measured pIC50 for Cc1ccc(C)c(OCCCC(C)(C)C(=O)O)c1 [GEMFIBROZIL]
result: 3.74
